Tested on: T. cruzi Tulahuen strain parasites in 3T3 host cells
Test: T. cruzi 48 h image-based assay
Type: cell-based, Trypanosoma cruzi
Conditions: Trypanosoma cruzi, TULAHUEN, 48 h; read-out: IC50 (T. cruzi)
assay-metric: pIC50
// scale note: pIC50 = -log10(conc_M); give the bare number

Consider the following illustrative entries.
- molecule: "CC[C@@H]([C@H](C)O)n1ncn(-c2ccc(N3CCN(c4ccc(OC[C@@H]5CO[C@@](Cn6cncn6)(c6ccc(F)cc6F)C5)cc4)CC3)cc2)c1=O [Posaconazole, reference compound]"
  measured-result: 8.26
- molecule: "CC1CS(=O)(=O)CCN1/N=C/c1ccc([N+](=O)[O-])o1 (stereo not drawn) [Nifurtimox, reference compound]"
  measured-result: 6.07

Here's the next entry for you.
GET /values?readout=pIC50&system=T. cruzi Tulahuen strain parasites in 3T3 host cells&item= Cc1ccc(S(=O)(=O)Nc2ccc(CN3CCN(C(=O)c4cccc(C#N)c4)CC3)cc2)cc1 [MMV 689028]
6.15

* * *

Test system: T.b. rhodesiense STIB900
Assay: T.b. rhodesiense STIB900 assay, 72 h
Format: cell-based
Details: Trypanosoma brucei; STIB900, 72 h; unit inferred; read-out: IC50 T. bR (T.b. rhodesiense)
Let's look at some molecules and their measured pIC50.
Would you please state pIC50, meaning minus log10 of the concentration in mol/L, as a bare number?

- molecule: "COc1ccc(S(=O)(=O)Nc2ccc(CN3CCN(C(=O)c4cccc(C#N)c4)CC3)cc2)cc1"
  measured-result: 6.20

API: value(readout= pIC50, system= T.b. rhodesiense STIB900, query= CCc1ccccc1-n1c(C)cn2c3c(=O)n(C(C(=O)OC)C(C)C)c(=O)n(C)c3nc12 (stereo not drawn) )
7.10

Under T.b. rhodesiense STIB900: pIC50 value of Nc1nc2ccc(-c3cncc(Oc4ccc(F)cc4)c3)cc2[nH]1 ?
5.92

Test system T.b. rhodesiense STIB900; read-out pIC50; what value for Cc1ccc(S(=O)(=O)Nc2ccc(CN3CCN(C(=O)c4cccc(C#N)c4)CC3)cc2)cc1 ?
6.55

Give the reported pIC50 for O=C(NCCc1ccn(-c2ccccc2)n1)C1CCCCC1 (system: T.b. rhodesiense STIB900).
7.10

Under T.b. rhodesiense STIB900: pIC50 value of O=C(NCc1nnc2n1CCCCC2)c1ccc(-c2ccc(F)cc2)o1 ?
7.34

* * *

System: T. cruzi Tulahuen strain parasites in 3T3 host cells
Assay: T. cruzi 48 h image-based assay
Format: cell-based, Trypanosoma cruzi
Details: Trypanosoma cruzi, TULAHUEN, 48 h; read-out: IC50 (T. cruzi)
Mark each entry T if its IC50 sits below 1000 nM, and F for all others.

Lab log: compare recorded IC50 with 1000 nM; is it strictly lower for O=C(Nc1ccc2c(c1)B(O)OC2)c1ccccc1C(F)(F)F [MMV 652003] ?
T

Dear colleague, could you confirm whether IC50 of O=C(NCc1nnc2n1CCCCC2)c1ccc(-c2ccc(F)cc2)o1 [MMV 688796] falls below 1000 nM? Thanks.
F

Just wondering, is IC50 of COc1ccc(C[C@H](N)C(=O)N[C@H]2[C@@H](O)[C@H](n3cnc4c(N(C)C)ncnc43)O[C@@H]2CO)cc1 [Puromycin, reference compound] below 1000 nM?
F

API: query returns whether the compound falls strictly under 1000 nM in IC50. Query: CCc1ccccc1-n1c(C)cn2c3c(=O)n(C(C(=O)OC)C(C)C)c(=O)n(C)c3nc12 (centres unmarked) [MMV 688550]
T

Does the reported IC50 of O=C(NCCc1ccn(-c2ccccc2)n1)C1CCCCC1 [MMV 688795] stay below 1000 nM?
T

* * *

System: T.b. brucei
Test: T.b. brucei temporal viability (time-kill) assay, 24 h, PrestoBlue
Assay type: cell-based, Trypanosoma brucei brucei
Conditions: Trypanosoma brucei, read-out: IC50 24 h T.b. brucei
assay-metric: pIC50
pIC50 is defined as minus the log10 of a concentration measured in mol/L.

- compound: "CCc1ccccc1-n1c(C)cn2c3c(=O)n(C(C(=O)OC)C(C)C)c(=O)n(C)c3nc12 (stereo not shown)"
  tested-on: "T.b. brucei"
  assay-metric: "pIC50"
  measured-result: 7.66

Value lookup for pIC50; key = C[C@@H]1[C@H](O)[C@@H](C)/C=C/C=C/C=C/C=C/C=C/C=C/C=C/[C@H](O[C@@H]2O[C@H](C)[C@@H](O)[C@H](N)[C@@H]2O)C[C@@H]2O[C@](O)(C[C@@H](O)C[C@@H](O)[C@H](O)CC[C@@H](O)C[C@@H](O)CC(=O)O[C@H]1C)C[C@H](O)[C@H]2C(=O)O [Amphotericin B, reference compound]
6.06

Item Nc1nc2ccc(-c3cncc(Oc4ccc(F)cc4)c3)cc2[nH]1 has what recorded pIC50?
6.03

Which pIC50 reading was recorded for the compound O=C(Nc1ccc2c(c1)B(O)OC2)c1ccccc1C(F)(F)F ?
6.35

Could you tell me which pIC50 is on file for O=C(NCc1nnc2n1CCCCC2)c1ccc(-c2ccc(F)cc2)o1 ?
6.62

Dear colleague, I am looking for the recorded pIC50 of the following compound: CC1CCCCN1C(=O)NCCc1coc(-c2ccc(F)cc2)n1 (stereo not shown)
6.82

So what's the measured pIC50 for this one? COc1ccc(S(=O)(=O)Nc2ccc(CN3CCN(C(=O)c4cccc(C#N)c4)CC3)cc2)cc1
6.01

* * *

Test system: T.b. brucei
Assay: T.b. brucei temporal viability (time-kill) assay, 24 h, PrestoBlue
Format: cell-based, Trypanosoma brucei brucei
Note to self: use MET only for Emax 24 h T.b. brucei readings below 90%; a reading exactly at 90% still gets NOT MET.

Hello, I'm reviewing records and need to know if Emax 24 h T.b. brucei of CN1CCN(S(=O)(=O)c2ccc(-c3ccc4c(Nc5ncc(Cl)cn5)ccnc4c3)cc2)CC1 is below 90%. Could you check?
NOT MET

Could you please tell me whether Emax 24 h T.b. brucei recorded for O=C(Nc1ccc(F)c(-c2nc3ncc(-c4ccccc4)cc3[nH]2)c1)N1CCCC1 is less than 90%?
MET

Does the reported Emax 24 h T.b. brucei of OCCc1ccc(Nc2nccc(-c3nnc4ccccn34)n2)cc1 stay below 90%?
MET

* * *

System: T.b. gambiense STIB930
Experiment: T.b. gambiense STIB930 assay, 72 h
Type: cell-based
Details: Trypanosoma brucei, unit inferred, read-out: IC50 T. Bg STIB930 (T.b. gambiense)
pIC50: −log10 of the molar value.
Label rule, in plain words: pIC50 of 7 and up is true, under 7 is false.

These recorded examples may help you get a feel for the data.
- compound: "Nc1nc2ccc(-c3cncc(Oc4ccc(F)cc4)c3)cc2[nH]1 [MMV 687248]"
  assigned-label: "false"
- compound: "CCc1ccccc1-n1c(C)cn2c3c(=O)n(C(C(=O)OC)C(C)C)c(=O)n(C)c3nc12 (stereo not shown) [MMV 688550]"
  assigned-label: "true"
- compound: "N=C(N)c1ccc(OCCCCCOc2ccc(C(=N)N)cc2)cc1 [Pentamidine, reference compound]"
  assigned-label: "true"
- compound: "Cc1ccc(S(=O)(=O)Nc2ccc(CN3CCN(C(=O)c4cccc(C#N)c4)CC3)cc2)cc1 [MMV 689028]"
  assigned-label: "true"
- compound: "COc1ccc(S(=O)(=O)Nc2ccc(CN3CCN(C(=O)c4cccc(C#N)c4)CC3)cc2)cc1 [MMV 689029]"
  assigned-label: "false"

Proceed to the following item.
Would you say O=C(NCCc1ccn(-c2ccccc2)n1)C1CCCCC1 [MMV 688795] shows pIC50 at minimum 7?
false

* * *

Tested on: T. cruzi
Experiment: T. cruzi compound wash off assay (48 h with compound, wash off, 72 h without)
Format: cell-based, Trypanosoma cruzi
Conditions: Trypanosoma cruzi; T. cruzi; 48 h incubation, wash off, further 72 h; read-out: IC50 Wash Off
assay-metric: IC50 (nM)
All answers are understood in nM, so give the number only.

As a guide, the following entries are already answered.
- compound: "O=C(NCCc1ccn(-c2ccccc2)n1)C1CCCCC1 [MMV 688795]"
  IC50 [nM]: 380
- compound: "O=C(Cn1ccnc1[N+](=O)[O-])NCc1ccccc1 [Benznidazole, reference compound]"
  IC50 [nM]: 1200
- compound: "O=C(NCc1nnc2n1CCCCC2)c1ccc(-c2ccc(F)cc2)o1 [MMV 688796]"
  IC50 [nM]: 1100
- compound: "CC1CCCCN1C(=O)NCCc1coc(-c2ccc(F)cc2)n1 (centres unmarked) [MMV 688797]"
  IC50 [nM]: 380
- compound: "CC1CS(=O)(=O)CCN1/N=C/c1ccc([N+](=O)[O-])o1 (centres unmarked) [Nifurtimox, reference compound]"
  IC50 [nM]: 350

Entry under review: COc1ccc(S(=O)(=O)Nc2ccc(CN3CCN(C(=O)c4cccc(C#N)c4)CC3)cc2)cc1 [MMV 689029] . Reported IC50?
880

Endpoint output: IC50 of O=C(Nc1ccc2c(c1)B(O)OC2)c1ccccc1C(F)(F)F [MMV 652003] . Value?
510

Endpoint output: IC50 of CCc1ccccc1-n1c(C)cn2c3c(=O)n(C(C(=O)OC)C(C)C)c(=O)n(C)c3nc12 (centres unmarked) [MMV 688550] . Value?
310

Which value of IC50 has been reported for Cc1ccc(S(=O)(=O)Nc2ccc(CN3CCN(C(=O)c4cccc(C#N)c4)CC3)cc2)cc1 [MMV 689028] in the records?
390

What measured IC50 goes with COc1ccc(C[C@H](N)C(=O)N[C@H]2[C@@H](O)[C@H](n3cnc4c(N(C)C)ncnc43)O[C@@H]2CO)cc1 [Puromycin, reference compound] ?
2800

May I ask what IC50 has been recorded for CC[C@@H]([C@H](C)O)n1ncn(-c2ccc(N3CCN(c4ccc(OC[C@@H]5CO[C@@](Cn6cncn6)(c6ccc(F)cc6F)C5)cc4)CC3)cc2)c1=O [Posaconazole, reference compound] ?
1.8

Where do the numbers come from? From paper PMC9317670.
